Tested on: HEK-293T
Assay: Multiplex assay against HEK293T
Assay type: toxicity, cell-based
Conditions: human, 48 h, 10 µM, compound concentration 10 uM
A collection of molecules and their measured Population Hoechst High Intensity Objects (%)
API: value field is a number in %; no unit string.

// known answers, use as guide
molecule: Cc1ccccc1C(=O)Nc1ccc(C(=O)N2CCCC(N(C)C)c3ccccc32)cc1.Cl (stereo unspecified)
units: %
measured.value: 6
//
molecule: Nc1nc(-c2ccco2)c2cnn(Cc3ccccc3F)c2n1
units: %
measured.value: 7
//
molecule: CCCCC[C@H](O)/C=C/[C@H]1[C@H](O)CC(=O)[C@@H]1CCCCCCC(=O)O [ALPROSTADIL]
units: %
measured.value: 2
//
molecule: COc1cc(NC(=O)CCN2CCC(OC(=O)Nc3ccccc3-c3ccccc3)CC2)c(Cl)cc1CNC[C@H](O)c1ccc(O)c2[nH]c(=O)ccc12 [BATEFENTEROL]
units: %
measured.value: 7
//
molecule: Cc1ccc(OCC(O)C(C)NC(C)C)c2c1CCC2.Cl (stereo unspecified)
units: %
measured.value: 5
//
molecule: CCn1c(-c2ccncc2)cc2c1CCNC2=O
units: %
measured.value: 0
//
molecule: COc1cc(N2CCN(C)CC2)ccc1Nc1nccc(-c2cn(C)c3cnccc23)n1
units: %
measured.value: 0
//
molecule: CN1CC[C@@]23CCCC[C@@H]2[C@@H]1Cc1ccc(O)cc13.O=C(O)C(O)C(O)C(=O)O
units: %
measured.value: 0

Req: Data request, read-out Population Hoechst High Intensity Objects (%), for Cc1ccc(-c2c(C(=O)CF)n(CCCO)c3ncnc(N)c23)cc1
Resp: 0

Req: Entry to check: CCCCCN1C(=O)C2(COc3cc4c(cc32)OCO4)c2ccccc21 (stereo unspecified)
Resp: 0

Req: Entry to check: COc1cc2nc(N3CCN(C(=O)c4ccco4)CC3)nc(N)c2cc1OC.Cl [PRAZOSIN HYDROCHLORIDE]
Resp: 4

---

Tested on: Fibroblast
Assay: Multiplex assay against human fibroblast
Format: toxicity, cell-based
Details: 48 h, 1 µM, compound concentration 1 uM
A collection of molecules and their measured Population Normal (%)

Req: Record CCOC(=O)c1c(/C(C#N)=C\N)c2ccc(Cl)c(Cl)c2n1C : what is its Population Normal (%) with Fibroblast?
Resp: 100%

Req: Entry to check: Cc1ccccc1C(=O)Nc1ccc(C(=O)N2CCCC(N(C)C)c3ccccc32)cc1.Cl (stereo not drawn)
Resp: 96%

Req: Entry to check: O=C(O)C(F)(F)F.O=C1NC(=O)/C(=C/c2c[nH]c(=O)c(-c3ccc(N4CCNCC4)nc3)c2)S1
Resp: 100%

---

Tested on: HEK-293T
Experiment: Multiplex assay against HEK293T
Type: toxicity, cell-based
Details: human, 48 h, 1 µM, compound concentration 1 uM
metric: Population Hoechst High Intensity Objects (%)
API: value field is a number in %; no unit string.

// known answers, use as guide
smiles.string: Cc1cc(NC(=O)NCCN2CCC(O)(Cc3ccccc3)CC2)c2ccccc2n1
measured.value: 3

smiles.string: CC[C@@H](C)Nc1nc(C)nc2c(-c3ccc(OC)nc3C)c(C)nn12
measured.value: 2

smiles.string: CN1CC[C@@]23CCCC[C@@H]2[C@@H]1Cc1ccc(O)cc13.O=C(O)C(O)C(O)C(=O)O
measured.value: 0

Req: Data request, read-out Population Hoechst High Intensity Objects (%), for COc1ccc2c(c1OCc1ccccc1)C[C@@H](C(=O)O)N(C(=O)C(c1ccccc1)c1ccccc1)C2
Resp: 2

Req: Entry to check: Oc1c(CN2CCN(c3ccccn3)CC2)cc(Cl)c2cccnc12
Resp: 3

Req: Entry to check: COc1cc(NC(=O)CCN2CCC(OC(=O)Nc3ccccc3-c3ccccc3)CC2)c(Cl)cc1CNC[C@H](O)c1ccc(O)c2[nH]c(=O)ccc12
Resp: 3

---

A collection of compounds and their measured Population Normal (%)
Test system: HEK-293T
Assay: Multiplex assay against HEK293T
Type: toxicity, cell-based
Conditions: human, 24 h, 1 µM, compound concentration 1 uM
API: value field is a number in %; no unit string.

// known answers, use as guide
compound: Cc1ccc(-c2c(C(=O)CF)n(CCCO)c3ncnc(N)c23)cc1
measured.value: 100
--
compound: CCc1cc2cc(NS(=O)(=O)c3ccc(C#N)cc3)ccc2n(CC)c1=O
measured.value: 94
--
compound: CN1[C@@H](CC(=O)c2ccccc2)CCC[C@H]1C[C@H](O)c1ccccc1.Cl [LOBELINE HYDROCHLORIDE]
measured.value: 100

Req: Record COc1cc(N2CCN(C)CC2)ccc1Nc1nccc(-c2cn(C)c3cnccc23)n1 : what is its Population Normal (%) with HEK-293T?
Resp: 100

Req: Entry to check: Oc1c(CN2CCN(c3ccccn3)CC2)cc(Cl)c2cccnc12
Resp: 96

Req: Entry to check: Cc1c(C(=O)NCCCN(C)C)sc2ncnc(Nc3ccc(F)cc3OC(C)CF)c12 (configuration not stated)
Resp: 100

Req: Entry to check: CCC(=N\O)/C(C)=C/c1ccc(F)cc1
Resp: 100

---

A collection of compounds and their measured Population Hoechst High Intensity Objects (%)
Tested on: U2OS
Assay: Multiplex assay against U2OS
Type: toxicity, cell-based
Conditions: human, 48 h, 10 µM, compound concentration 10 uM
API: value field is a number in %; no unit string.

// known answers, use as guide
compound: COc1ccc2c(c1OCc1ccccc1)C[C@@H](C(=O)O)N(C(=O)C(c1ccccc1)c1ccccc1)C2
target.of.assay: U2OS
measured.value: 1
--
compound: O=c1nc2[nH]c3ccccc3nc-2c(=O)[nH]1
target.of.assay: U2OS
measured.value: 1
--
compound: CC(C)(c1ccc(O)cc1)c1ccc(O)cc1
target.of.assay: U2OS
measured.value: 0
--
compound: CC[C@@H](C)Nc1nc(C)nc2c(-c3ccc(OC)nc3C)c(C)nn12
target.of.assay: U2OS
measured.value: 1

Req: Data request, read-out Population Hoechst High Intensity Objects (%), for CN1[C@@H](CC(=O)c2ccccc2)CCC[C@H]1C[C@H](O)c1ccccc1.Cl [LOBELINE HYDROCHLORIDE]
Resp: 0

Req: Entry to check: Cc1ccc(-c2c(C(=O)CF)n(CCCO)c3ncnc(N)c23)cc1
Resp: 0

Req: Entry to check: Nc1nc(CC(=O)Nc2ccc(CCNC[C@H](O)c3ccccc3)cc2)cs1
Resp: 2

Req: Entry to check: CN(C)C(=O)Cn1cc(-c2ccc(-c3cncc4ccccc34)cc2)cn1
Resp: 2

---

Test system: Fibroblast
Test: Multiplex assay against human fibroblast
Type: toxicity, cell-based
Conditions: 48 h, 1 µM, compound concentration 1 uM
metric: Population Hoechst High Intensity Objects (%)
API: value field is a number in %; no unit string.

// known answers, use as guide
compound: O=C1NC(NC23CC4CC(CC(C4)C2)C3)=N/C1=C\c1ccc2ncsc2c1
target.of.assay: Fibroblast
units: %
measured.value: 0
--
compound: COc1cc(NC(=O)CCN2CCC(OC(=O)Nc3ccccc3-c3ccccc3)CC2)c(Cl)cc1CNC[C@H](O)c1ccc(O)c2[nH]c(=O)ccc12
target.of.assay: Fibroblast
units: %
measured.value: 3

Let us examine a further case.
Req: Data request, read-out Population Hoechst High Intensity Objects (%), for Cc1c(C(=O)NCCCN(C)C)sc2ncnc(Nc3ccc(F)cc3OC(C)CF)c12 (stereo not drawn)
Resp: 0

---

System: U2OS
Assay: Multiplex assay against U2OS
Type: toxicity, cell-based
Settings: human, 48 h, 1 µM, compound concentration 1 uM
metric: Population Normal (%)
API: value field is a number in %; no unit string.

// known answers, use as guide
compound: Cc1c(C(=O)NCCCN(C)C)sc2ncnc(Nc3ccc(F)cc3OC(C)CF)c12 (configuration not stated)
units: %
Population Normal (%): 100
--
compound: CCC(=N\O)/C(C)=C/c1ccc(F)cc1 [A-079]
units: %
Population Normal (%): 100
--
compound: Cc1cc(C(C#N)c2ccc(Cl)cc2)c(Cl)cc1NC(=O)c1cc(I)cc(I)c1O (configuration not stated) [CLOSANTEL]
units: %
Population Normal (%): 100
--
compound: NC1=NC(=O)/C(=C2\CCNC(=O)c3[nH]c4ccccc4c32)N1
units: %
Population Normal (%): 100
--
compound: Cc1ccccc1C(=O)Nc1ccc(C(=O)N2CCCC(N(C)C)c3ccccc32)cc1.Cl (configuration not stated)
units: %
Population Normal (%): 98
--
compound: CCn1c(-c2ccncc2)cc2c1CCNC2=O
units: %
Population Normal (%): 100
--
compound: CC(C)(c1ccc(O)cc1)c1ccc(O)cc1 [BISPHENOL A]
units: %
Population Normal (%): 100
--
compound: CCn1c(-c2nonc2N)nc2c(C#CC(C)(C)O)ncc(OCC3CCCNC3)c21 (configuration not stated)
units: %
Population Normal (%): 100
--
compound: CN1[C@@H](CC(=O)c2ccccc2)CCC[C@H]1C[C@H](O)c1ccccc1.Cl [LOBELINE HYDROCHLORIDE]
units: %
Population Normal (%): 100
--
compound: Cc1cc(=O)n(C)c2cc(N3C(=O)CC[C@H](NS(=O)(=O)CC(C)C)[C@H]3c3ccc(Cl)cc3)ccc12
units: %
Population Normal (%): 98

Req: Data request, read-out Population Normal (%), for CC(C)(C)c1cc(C(C)(C)C)c(NC(=O)c2c[nH]c3ccccc3c2=O)cc1O [IVACAFTOR]
Resp: 100

Req: Entry to check: CCCCCN1C(=O)C2(COc3cc4c(cc32)OCO4)c2ccccc21 (configuration not stated)
Resp: 100

Req: Entry to check: Cc1c(-c2cc(-c3ccccc3Cl)no2)cnn1C1CCNCC1.Cl
Resp: 100

Req: Entry to check: COc1cc(OC2CCN(C(C)=O)CC2)ccc1C(=O)N1CCC(N2C(=O)OCc3ccccc32)CC1
Resp: 96
